Test system: NCI-H460
procedure_text: NCI tumour cell line growth inhibition, 48 h
Calls of active or inactive are those of the source. Rule as the data show it: active = GI50 up to about 1.1 µM and inactive = higher.
# GI50 annotations
assay_readout: GI50

>>> result("COc1cccc(/N=N/C(=NNC(=O)c2ccc(C)cc2)c2ccc(N(C)C)cc2)c1")
"> 100 µM (inactive)"
>>> result("Cc1ccc(C)c(NC(=O)C(=O)C(c2cnc3ccc([N+](=O)[O-])cc3n2)[N+](=O)[O-])c1 (stereo not given)")
"42.7 µM (inactive)"
>>> result("CN(C)CCCn1c(-c2cc(C(C)(C)C)c(O)c(C(C)(C)C)c2)cs/c1=N\\c1ccccc1")
"2.35 µM (inactive)"
>>> result("O=C1C=C(Nc2ccccc2C(=O)c2ccccc2)c2ccccc2C1=O")
"71 µM (inactive)"
>>> result("COc1cc2c(cc1Cl)[n+]([O-])c(C#N)c(N1CCN(c3ccc([N+](=O)[O-])cc3)CC1)[n+]2[O-]")
"7.78 µM (inactive)"
